tested on: H3K9me2 in HCT116 cells; test: HCT116 H3K9me2 in-cell western assay; format: cell-based; conditions: Homo sapiens, HCT-116, 72 h, HCT116 cells, 72 hours incubation; read-out: H3K9me2 ICW IC50
metric.name: IC50

# count of solved cases: 3
CNc1cc(C)nc(Nc2cc3c(c(OCCCN4CCCC4)c2)OCCC3)n1 [Compound 113] :: 100 to 500 nM
CNc1cc(C)nc(Nc2cc3c(c(C4=CCNC[C@H](O)C4)c2F)OC[C@@H]3C)n1 (stereo in doubt) [Compound 401] :: < 100 nM
CNc1cc(Nc2cc3c(c(C4=CCNCCC4)c2F)OCC3)nc(C)c1F [Compound 257] :: < 100 nM

What does the data say about its IC50? Entry: CNc1nc(Nc2cc3c(c(C4=CCNCCC4)c2F)OCC3)nc(C)c1C [Compound 223]
< 100 nM

What does the data say about its IC50? Entry: CNc1cc(C)nc(Nc2cc3c(c(C4=CCNCCC4)c2C)OCO3)n1 [Compound 363]
< 100 nM

What does the data say about its IC50? Entry: CNc1cc(C)nc(Nc2cc3c(c(N4CCCNCC4)c2)OCC3)n1 [Compound 125]
500 to 2000 nM

What does the data say about its IC50? Entry: Cc1cc(NC2COC2)cc(Nc2cc3c(c(C4=CCNCCC4)c2)OCC3)n1 [Compound 313]
500 to 2000 nM

What does the data say about its IC50? Entry: CNc1cc(C)nc(Nc2cc(OCCCN3CCCC3)c3occc3c2)n1 [Compound 102]
500 to 2000 nM

====

test system: H3K9me2 in HCT116 cells; experiment: HCT116 H3K9me2 in-cell western assay; format: cell-based; details: Homo sapiens, HCT-116, 72 h, read-out: H3K9me2 ICW IC50
metric.name: IC50

What does the data say about its IC50? Entry: CNc1cc(C)nc(Nc2ccc(OC)c(C3=CCN(C)CCC3)c2)n1 [Reference Compound A, reference compound]
< 0.1 µM

====

target: human EHMT2 913-1193 (Homo sapiens); assay: EHMT2 enzyme assay on histone peptide substrate (3H-SAM SPA); settings: EHMT2 IC50, recombinant human EHMT2 913-1193, histone peptide substrate
// reported IC50 for each item listed

CNc1cc(C)nc(Nc2cc3c(c(C4=CCN(C)CC(O)C4)c2C)OCC3)n1 (single isomer, unassigned) [Compound 375] :: 0.5 to 2 µM
CNc1cc(C)nc(Nc2cc3c(c(C4=C[C@H]5CNC[C@H]5C4)c2)OCCO3)n1 (racemic) :: 0.1 to 0.5 µM
[2H]C([2H])([2H])Nc1cc(C)nc(Nc2cc3c(c(C4=CCN(C)CCC4)c2)OCCC3)n1 :: 0.1 to 0.5 µM
CNc1cc(C)nc(Nc2cc3c(c(OCCCN4CCCC4)c2)OCCC3)n1 :: 0.5 to 2 µM
COCCCNc1cc(C)nc(Nc2cc3c(c(C4=CCN(C)CCC4)c2)OCC3)n1 :: 0.1 to 0.5 µM

What does the data say about its IC50? Entry: `[2H]Cc1cc(NC([2H])([2H])[2H])nc(Nc2cc3c(c(C4=CCNCCC4)c2)OCCC3)n1`
< 0.1 µM

What does the data say about its IC50? Entry: `CNc1nc(Nc2cc3c(c(C4=CCN(C)CCC4)c2F)OCC3)nc(C)c1Cl`
0.5 to 2 µM

====

// reported pIC50 for each item listed
Biological target: human EHMT2 913-1193 (Homo sapiens)
Sequence (Q96KQ7 913-1193): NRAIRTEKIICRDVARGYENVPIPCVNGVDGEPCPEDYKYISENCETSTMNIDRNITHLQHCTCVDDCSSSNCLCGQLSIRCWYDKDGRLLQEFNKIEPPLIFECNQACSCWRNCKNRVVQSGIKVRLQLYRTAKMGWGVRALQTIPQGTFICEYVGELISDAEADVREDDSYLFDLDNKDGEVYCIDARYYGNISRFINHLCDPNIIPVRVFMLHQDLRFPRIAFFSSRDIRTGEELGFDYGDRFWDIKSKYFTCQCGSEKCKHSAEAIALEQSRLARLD
Test: EHMT2 enzyme assay on histone peptide substrate (3H-SAM SPA)
Conditions: EHMT2 IC50, recombinant human EHMT2 913-1193, histone peptide substrate
pIC50: −log10 of the molar value.

# count of solved cases: 3
CNc1cc(C)nc(Nc2cc3c(c(C4CCCNCC4)c2)OCC3)n1 (stereo not shown) :: 5.70 to 6.30
CNc1cc(C)nc(Nc2cc3c(c(C4=CCNCC(O)C4)c2C)OCCC3)n1 (single isomer, unassigned) [Compound 360] :: 5.70 to 6.30
CNc1cc(C)nc(Nc2cc3c(c(C4=CCNC(CO)CC4)c2F)OCC3)n1 (single isomer, unassigned) [Compound 159] :: 6.30 to 7.00

What does the data say about its pIC50? Entry: `Cc1cc(NC2CCCCC2)nc(Nc2cc3c(c(OCCCN4CCCC4)c2)OCC3)n1`
< 5.70

====

// reported pIC50 for each item listed
test system: H3K9me2 in HCT116 cells; experiment: HCT116 H3K9me2 in-cell western assay; format: cell-based; conditions: Homo sapiens, HCT-116, 72 h, HCT116 cells, 72 hours incubation; read-out: H3K9me2 ICW IC50
pIC50: −log10 of the molar value.

# count of solved cases: 8
[2H]C([2H])([2H])CNc1cc(C)nc(Nc2cc3c(c(C4=CCN(C)CCC4)c2)OCC3)n1 [Compound 296] :: 6.30 to 7.00
COCCNc1cc(C)nc(Nc2cc3c(c(C4=CCNCCC4)c2)OCC3)c1 [Compound 305] :: 5.70 to 6.30
CNc1cc(C)nc(Nc2cc3c(c(C4=C[C@H]5CNC[C@H]5C4)c2)OCCC3)n1 [Compound 344] :: 6.30 to 7.00
CNc1nc(Nc2cc(OCCCN3CCCC3)c3occc3c2)nc(C)c1F [Compound 109] :: < 5.70
[2H]C([2H])([2H])Nc1nc(Nc2cc3c(c(C4=CCN(C)CCC4)c2)OCC3)nc(C)c1F [Compound 271] :: 6.30 to 7.00
[2H]C([2H])([2H])CNc1cc(C)nc(Nc2cc3c(c(C4=CCNCCC4)c2)OCO3)n1 [Compound 246] :: > 7.00
COCCNc1cc(C)nc(Nc2cc3c(c(C4=CCN(C)CCC4)c2)OCC3)n1 [Compound 324] :: 6.30 to 7.00
[2H]Cc1cc(NC([2H])([2H])[2H])nc(Nc2cc3c(c(C4=CCN(C)CCC4)c2)OCCO3)n1 [Compound 230] :: 6.30 to 7.00

Recall the recorded pIC50 for CNc1cc(C)nc(Nc2cc3c(c(C4=CCN(C)CCC4)c2)OCCO3)n1 [Compound 131] with H3K9me2 in HCT116 cells and state it.
> 7.00

Recall the recorded pIC50 for CNc1ccnc(Nc2cc3c(c(C4=CCNCCC4)c2)OCC3)n1 [Compound 330] with H3K9me2 in HCT116 cells and state it.
> 7.00

Recall the recorded pIC50 for COCCNc1cc(C)nc(Nc2cc3c(c(C4=CCNCCC4)c2)OCC3)n1 [Compound 327] with H3K9me2 in HCT116 cells and state it.
> 7.00

====

molecular target: human EHMT2 913-1193 (Homo sapiens); test: EHMT2 enzyme assay on histone peptide substrate (3H-SAM SPA); settings: EHMT2 IC50, recombinant human EHMT2 913-1193, histone peptide substrate
pIC50: −log10 of the molar value.
// reported pIC50 for each item listed

CNc1cc(C)nc(Nc2cc3c(c(C4=CCNC(C)CC4)c2F)OCCO3)n1 (single isomer, unassigned) [Compound 163-a] :: < 5.70
CNc1cc(C)nc(Nc2cc3c(c(C4=CC(C)N(C)CCC4)c2F)OCC3)n1 (centres unmarked) [Compound 200] :: 5.70 to 6.30
CNc1cc(C)nc(Nc2cc3c(c(C4=CCNC(C)CC4)c2F)OCO3)n1 (single isomer, unassigned) [Compound 369] :: > 7.00
CCc1cc(NC)nc(Nc2cc3c(c(C4=CCNCCC4)c2)OCC3)n1 [Compound 319] :: > 7.00
CNc1cc(C)nc(Nc2cc3c(c(C4=CCNCCC4)c2)OCCO3)c1 [Compound 144] :: 6.30 to 7.00

Recall the recorded pIC50 for CNc1cc(C)nc(Nc2cc(OCCCN3CCCC3)c3c(c2)OCO3)n1 [Compound 118] with human EHMT2 913-1193 (Homo sapiens) and state it.
5.70 to 6.30

Recall the recorded pIC50 for [2H]Cc1nc(Nc2cc3c(c(C4=CCN(C)CCC4)c2)OCC3)nc(NC([2H])([2H])[2H])c1F [Compound 220] with human EHMT2 913-1193 (Homo sapiens) and state it.
5.70 to 6.30

Recall the recorded pIC50 for CNc1cc(C)nc(Nc2cc3c(c(C4=CCN(C)CCC4)c2)OCC3)n1 [Compound 111] with human EHMT2 913-1193 (Homo sapiens) and state it.
> 7.00
